Where do these numbers come from? They come from patent US11731977B2.

Assay protocol: Non-human primate (NHP) CSF pharmacokinetic properties (Example 6)
Format: in vivo, Cynomolgus monkeys
Measurement setup: male, CSF / unbound plasma; Cynomolgus monkey, 0.3 mg/kg IV, @ 4 h
Measurement name: Kp uu at 4 h
Reply: number alone, nothing else.

Recorded Kp uu at 4 h of Fc1ccccc1Cc1nc(-c2nc(C(F)(F)F)n[nH]2)cn2ccnc12 , please.
3

###

Assay protocol: Non-human primate (NHP) CSF pharmacokinetic properties (Example 6)
Format: in vivo, Cynomolgus monkeys
Measurement setup: male, CSF / unbound plasma; Cynomolgus monkey, 1 mg/kg PO, @ 8 h
Measurement name: Kp uu at 8 h
Reply: number alone, nothing else.

Recorded Kp uu at 8 h of Fc1ccccc1Cc1nc(-c2nc(C(F)(F)F)n[nH]2)cn2ccnc12 [Compound I-1] , please.
2.5

###

Target or system: sGC enzyme (Homo sapiens, UniProt Q02108+Q02153)
Construct: sGC enzyme activity values in HEK cells, determined by the GloSensor assay; host or cells: HEK293 cells stably expressing GloSensor 40F cGMP biosensor
Assay protocol: cGMP GloSensor cell-based assay, 384-well format (Example 2a)
Measurement setup: HEK293 GloSensor 40F cGMP cells; 10 μM DETA-NONOate; 50% of high control (30 μM Compound Y); read-out: Abs EC50
Measurement name: EC50

Solved entries (count: 2):
# Mol smiles, EC50
rows = [
    ("Cc1cc(Cn2nc(-c3cn4ccnc4c(Cc4ccccc4F)n3)nc2C)no1", "≤ 100 nM"),
    ("Fc1ccccc1Cc1nc(-c2nc(-n3ccnc3)n[nH]2)cn2ccnc12", "100 to 1000 nM"),
]

Recorded EC50 of Nc1nc(-c2cn3ccnc3c(Cc3ccccc3F)n2)nn1Cc1cccc(F)c1 , please.
≤ 100 nM

Recorded EC50 of Cc1nc(-c2cn3ccnc3c(Cc3ccccc3F)n2)nn1Cc1ccc(F)cc1 , please.
≤ 100 nM

###

Assay protocol: Non-human primate (NHP) CSF pharmacokinetic properties (Example 6)
Format: in vivo, Cynomolgus monkeys
Measurement setup: male, CSF; Cynomolgus monkey, 0.3 mg/kg IV, @ 1 h; read-out: CSF Conc.
Measurement name: concentration at 1 h (nM)
Give the value in nM but do not write nM after it.

Recorded concentration at 1 h of Fc1ccccc1Cc1nc(-c2nc(C(F)(F)F)n[nH]2)cn2ccnc12 , please.
27

###

Test system: cAMP response element-binding protein (CREB)
Assay protocol: pCREB phosphorylation in rat primary neurons (Example 12)
Type: cell-based
Measurement setup: Primary neuron, 0.5 h, 10 μM DETA-NONOate, 30 min, read-out: EC50, phosphorylation of CREB at Ser133
Measurement name: EC50 (nM)
Give the value in nM but do not write nM after it.

Enter reported EC50 observed with cAMP response element-binding protein (CREB) for Fc1ccccc1Cc1nc(-c2nc(C(F)(F)F)n[nH]2)cn2ccnc12
3

###

Assay protocol: Rat cerebrospinal fluid (CSF) pharmacokinetic properties (Example 4)
Assay type: in vivo
Measurement setup: male, Sprague-Dawley, 10 mg/kg PO, 1 h, unbound CSF/unbound plasma, read-out: Kp,uu (@ 1 h)
Measurement name: Kp uu at 1 h

Solved entries (count: 3):
# Compound, Measurement name, Recorded result
rows = [
    ("Fc1cccc(Cc2nc(-c3nc(C(F)F)n[nH]3)cn3ccnc23)c1F [Compound I-11]", "Kp uu at 1 h", 2.1),
    ("Fc1cccc(Cc2nc(-c3nc(C(F)(F)F)n[nH]3)cn3ccnc23)c1 [Compound I-2]", "Kp uu at 1 h", 0.9),
    ("Fc1ccccc1Cc1nc(-c2nc(C(F)F)n[nH]2)cn2ccnc12 [Compound I-14]", "Kp uu at 1 h", 1.7),
]

Recorded Kp uu at 1 h of Cc1ccc(Cc2nc(-c3nc(C(F)(F)F)n[nH]3)cn3ccnc23)cc1F [Compound I-27] , please.
0.2

Recorded Kp uu at 1 h of Fc1ccccc1Cc1nc(-c2nc(C(F)(F)F)n[nH]2)cn2ncnc12 [Compound I-16] , please.
1.6

Recorded Kp uu at 1 h of Fc1cccc(Cc2nc(-c3nc(C(F)(F)F)n[nH]3)cn3ccnc23)c1F [Compound I-10] , please.
3.1

Recorded Kp uu at 1 h of Fc1ccccc1Cc1nc(-c2nc(C(F)(F)F)n[nH]2)cn2ccnc12 [Compound I-1] , please.
0.9

Recorded Kp uu at 1 h of Cc1ccc(Cc2nc(-c3nc(C(F)F)n[nH]3)cn3ccnc23)cc1F [Compound I-28] , please.
0.2

Recorded Kp uu at 1 h of Fc1cccc(Cc2nc(-c3nc(C(F)F)n[nH]3)cn3ccnc23)c1 [Compound I-3] , please.
0.8

###

In this section, each of the compounds is paired with its reported EC50.
Target or system: sGC enzyme (Homo sapiens, UniProt Q02108+Q02153)
Construct: sGC enzyme activity values in HEK cells, determined by the GloSensor assay; host or cells: HEK293 cells stably expressing GloSensor 40F cGMP biosensor
Sequence (Q02153 1-619): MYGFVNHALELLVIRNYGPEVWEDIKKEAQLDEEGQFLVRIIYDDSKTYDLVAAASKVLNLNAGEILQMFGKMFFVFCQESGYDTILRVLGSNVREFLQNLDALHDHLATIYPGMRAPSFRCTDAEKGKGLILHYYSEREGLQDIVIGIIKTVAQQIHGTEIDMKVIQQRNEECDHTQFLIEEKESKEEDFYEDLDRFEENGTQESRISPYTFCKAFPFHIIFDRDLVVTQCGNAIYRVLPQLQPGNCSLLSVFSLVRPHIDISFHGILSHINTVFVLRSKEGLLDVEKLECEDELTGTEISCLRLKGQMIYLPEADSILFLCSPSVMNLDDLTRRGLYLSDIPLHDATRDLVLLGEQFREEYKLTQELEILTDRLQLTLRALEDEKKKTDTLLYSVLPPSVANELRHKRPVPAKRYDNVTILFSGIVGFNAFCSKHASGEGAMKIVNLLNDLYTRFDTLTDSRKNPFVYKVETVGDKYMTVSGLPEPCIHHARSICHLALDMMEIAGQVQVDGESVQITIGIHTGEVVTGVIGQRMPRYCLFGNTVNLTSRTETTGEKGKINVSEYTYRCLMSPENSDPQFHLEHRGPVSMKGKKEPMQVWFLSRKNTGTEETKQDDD
Sequence (Q02108 1-690): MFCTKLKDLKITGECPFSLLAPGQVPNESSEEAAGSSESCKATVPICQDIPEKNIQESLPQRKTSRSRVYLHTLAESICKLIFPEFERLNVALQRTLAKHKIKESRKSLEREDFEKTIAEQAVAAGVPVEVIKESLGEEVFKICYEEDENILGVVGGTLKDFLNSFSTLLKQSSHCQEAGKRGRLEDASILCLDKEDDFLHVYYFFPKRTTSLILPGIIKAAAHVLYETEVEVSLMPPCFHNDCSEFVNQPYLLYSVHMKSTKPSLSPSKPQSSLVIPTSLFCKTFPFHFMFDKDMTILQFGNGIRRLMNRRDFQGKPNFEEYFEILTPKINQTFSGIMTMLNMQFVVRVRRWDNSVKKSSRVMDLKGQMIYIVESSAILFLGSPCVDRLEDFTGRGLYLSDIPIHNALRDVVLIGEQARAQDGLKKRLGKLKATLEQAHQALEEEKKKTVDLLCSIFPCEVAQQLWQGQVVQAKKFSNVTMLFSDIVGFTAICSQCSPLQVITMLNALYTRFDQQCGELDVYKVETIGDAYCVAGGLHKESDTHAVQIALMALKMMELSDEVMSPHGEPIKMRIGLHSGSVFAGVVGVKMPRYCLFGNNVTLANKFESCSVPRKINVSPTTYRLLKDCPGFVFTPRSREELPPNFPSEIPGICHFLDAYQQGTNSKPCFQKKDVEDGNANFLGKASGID
Assay protocol: cGMP GloSensor cell-based assay, 384-well format (Example 2a)
Measurement setup: HEK293 GloSensor 40F cGMP cells; 10 μM DETA-NONOate; 50% of high control (30 μM Compound Y); read-out: Abs EC50

Solved entries (count: 2):
# Mol smiles, EC50
records = [
    ("Cn1cnc2c(Cc3ccccc3F)nc(-c3nc(C(F)(F)F)n[nH]3)nc21", "> 1000 nM"),
    ("Fc1ccccc1Cc1nc(-c2nc(C(F)(F)F)n[nH]2)cn2c(I)cnc12", "100 to 1000 nM"),
]

// next item, EC50 requested
Recorded EC50 of Fc1ccccc1Cc1nc(-c2nc(C(F)(F)F)n[nH]2)cn2c(F)cnc12 , please.
≤ 100 nM

###

Target or system: sGC enzyme (Homo sapiens, UniProt Q02108+Q02153)
Construct: sGC enzyme activity values in HEK cells, determined by the GloSensor assay; host or cells: HEK293 cells stably expressing GloSensor 40F cGMP biosensor
Assay protocol: cGMP GloSensor cell-based assay, 384-well format (Example 2a)
Measurement setup: HEK293 GloSensor 40F cGMP cells; 10 μM DETA-NONOate; 50% of high control (30 μM Compound Y); read-out: Abs EC50
Procedure: Human embryonic kidney cells (HEK293) cells expressing GloSensor™ 40F cGMP (Part No: CS182801, Promega) were used to evaluate the activity of test compounds. The luminescent biosensors (engineered luciferase) that were incorporated into these cells detect cGMP formed by the compounds stimulating the sGC enzyme and emit luminescence. […] For the kinetics studies, luminescense was measured right away for 0.2 sec per well with Envision (Perkin Elmer). […]
Measurement name: EC50

Solved entries (count: 5):
# Compound, Target or system, EC50
records = [
    ("Fc1ccccc1Cc1nc(-c2nc(Cl)n[nH]2)cn2ccnc12 [Compound I-62]", "sGC enzyme (Homo sapiens, UniProt Q02108+Q02153)", "≤ 100 nM"),
    ("Cn1cnc2c(Cc3ccccc3F)nc(-c3nc(C(F)(F)F)n[nH]3)cc21 [Compound I-36]", "sGC enzyme (Homo sapiens, UniProt Q02108+Q02153)", "> 1000 nM"),
    ("Fc1ccccc1Cc1nc(-c2nc(C(F)(F)F)n[nH]2)cn2ncnc12 [Compound I-16]", "sGC enzyme (Homo sapiens, UniProt Q02108+Q02153)", "≤ 100 nM"),
    ("Fc1cc(F)cc(Cc2nc(-c3nc(C(F)F)n[nH]3)cn3ccnc23)c1 [Compound I-30]", "sGC enzyme (Homo sapiens, UniProt Q02108+Q02153)", "≤ 100 nM"),
    ("Fc1ccc(F)c(Cc2nc(-c3nc(C(F)F)n[nH]3)cn3ncnc23)c1 [Compound I-23]", "sGC enzyme (Homo sapiens, UniProt Q02108+Q02153)", "≤ 100 nM"),
]

Recorded EC50 of Fc1ccc(Cc2nc(-c3nc(C(F)(F)F)n[nH]3)cn3ccnc23)cc1 [Compound I-12] , please.
100 to 1000 nM

Recorded EC50 of Fc1cc(F)cc(Cc2nc(-c3nc(C(F)F)n[nH]3)cn3ncnc23)c1 [Compound I-25] , please.
≤ 100 nM

Recorded EC50 of Cc1ccc(Cc2nc(-c3nc(C(F)(F)F)n[nH]3)cn3ccnc23)cc1F [Compound I-27] , please.
≤ 100 nM
